src = PubChem BioAssay (NCI)

Tested on: A498 renal
Experiment: NCI-60 one-dose screen, 48 h (100 = growth as untreated, 0 = no growth, -100 = all killed)
Conditions: 10 µM unless noted
This is part of a sample that, as a whole, favours compounds with a hit. Of some 83,000 tested, about 20% had one in any assay.
measure: growth (%)
Dear colleague, please return just the value in %, with no unit written.

Inquiry: Endpoint output: growth of Fc1ccc(NC(c2ccc(F)cc2)C2CCN(CCCCc3ccccc3)CC2)cc1 (stereo not given) . Value?
Reply text: 17.2

Inquiry: State the recorded growth for this entry: `COc1cc(N=Nc2ccc(O)c3ncccc23)c2ncccc2c1`
Reply text: 74.9

Inquiry: If you can, please state the reported growth value of `O=C(Nc1ccccc1C(=O)N/N=C(\c1ccccc1)c1ccccn1)c1ccccc1` .
Reply text: 16.5

Inquiry: Need growth, item `COc1cc(-c2nc3occn3c2-c2ccnc(NCCCNS(=O)(=O)c3ccc(O)cc3)n2)ccc1F`
Reply text: 104

Inquiry: Which growth is listed for `Cc1ccc(Nc2nc(-c3cc(O)c(C)c(C)c3O)cs2)cc1` ?
Reply text: 123
